# targetSystem: T1, HCoV-OC43 spike antigens (bead panel) (HCoV-OC43, UniProt P36334 14-1297)
# T1 sequence: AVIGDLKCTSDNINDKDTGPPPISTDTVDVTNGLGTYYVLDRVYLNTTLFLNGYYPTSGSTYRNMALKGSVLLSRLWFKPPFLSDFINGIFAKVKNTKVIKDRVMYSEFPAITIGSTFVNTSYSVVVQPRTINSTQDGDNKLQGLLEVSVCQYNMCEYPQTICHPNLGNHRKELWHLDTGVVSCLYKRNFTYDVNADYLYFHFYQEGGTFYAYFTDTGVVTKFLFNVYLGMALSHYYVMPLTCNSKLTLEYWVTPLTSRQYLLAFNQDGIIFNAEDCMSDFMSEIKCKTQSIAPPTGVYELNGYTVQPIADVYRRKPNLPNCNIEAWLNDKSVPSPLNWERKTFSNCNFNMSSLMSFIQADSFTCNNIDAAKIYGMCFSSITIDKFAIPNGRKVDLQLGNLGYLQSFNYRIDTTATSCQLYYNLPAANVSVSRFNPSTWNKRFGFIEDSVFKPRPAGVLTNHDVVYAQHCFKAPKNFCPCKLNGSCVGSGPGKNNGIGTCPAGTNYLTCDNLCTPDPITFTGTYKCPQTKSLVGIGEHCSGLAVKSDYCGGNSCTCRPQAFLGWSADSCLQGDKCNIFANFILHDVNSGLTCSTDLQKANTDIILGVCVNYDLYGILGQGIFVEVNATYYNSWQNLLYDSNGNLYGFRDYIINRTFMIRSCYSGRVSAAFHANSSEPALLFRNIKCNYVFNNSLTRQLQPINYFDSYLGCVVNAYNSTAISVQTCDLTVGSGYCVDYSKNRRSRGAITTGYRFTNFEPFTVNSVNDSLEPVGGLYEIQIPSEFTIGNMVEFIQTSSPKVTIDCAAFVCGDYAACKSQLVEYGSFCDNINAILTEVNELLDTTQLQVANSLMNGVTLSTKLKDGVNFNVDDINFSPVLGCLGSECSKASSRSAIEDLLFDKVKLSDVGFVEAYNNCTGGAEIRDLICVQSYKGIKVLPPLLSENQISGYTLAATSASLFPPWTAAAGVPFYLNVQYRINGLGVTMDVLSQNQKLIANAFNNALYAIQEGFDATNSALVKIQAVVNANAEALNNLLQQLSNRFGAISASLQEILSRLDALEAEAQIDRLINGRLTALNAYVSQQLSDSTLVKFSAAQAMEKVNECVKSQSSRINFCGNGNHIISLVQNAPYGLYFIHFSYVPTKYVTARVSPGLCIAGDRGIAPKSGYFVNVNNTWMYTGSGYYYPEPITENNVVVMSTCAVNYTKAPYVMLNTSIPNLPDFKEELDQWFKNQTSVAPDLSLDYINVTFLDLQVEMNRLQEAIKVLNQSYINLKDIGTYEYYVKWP
# assayExplanation: multiplex bead assay
property: binding result

Here are 5 binders together with their reported answers.
binder: COV_1151 (antibody, V domains shown, human IgG1) VH: QVQVQQWGAGLLKPSETLSLTCAVYGGSFNNYYWSWIRQPPGKGLEWIGEINHSGSTNYNPSLMSRVTISVDTSKNQFSLKLTSVTAADTAVYFCARGLPVTTFFSSYYGMDVWGQGTTVTVSS VL: EIVLTQSPGTLSLSPGERATLSCRASQSVSRTYLAWYQQKPGQAPRLLIYGASSRATGIPDRFSGSGSGTDFTLTISRLEPEDFAVYYCQHYGSSPWTFGQGTKVEIRR
binding result: no binding
--
binder: COV_2054 (antibody, V domains shown, human IgG1) VH: EVQLVESGGGVLQPGRSLRLSCAASGFTFNNYALHWVRQAPGKGLEWVAVISYDGSSKYYADSVRGRLTISRDNSRNTLYLQMNSLRPEDTAIYYCARDGDGLWLGESFYFDDWGQGTLVTVSS VL: DIQMTQSPSTLSASVGDRVIITCRASQSISSWLAWYQQKPGKAPKLLIYEASTLQSGVPSRFSGSGSGTEFTLTISSLQPDDSATYYCQQYNSYPVHFSQGTKLEIK
binding result: no binding
--
binder: COV_3053 (antibody, V domains shown, human IgG1) VH: EVQLVESGGGLVQPGRSLRLSCTASGFTLGDYAMTWVRQAPGKGLEWLGIIRNKRYGETKQYAASVKGRFTFSRDDSKGIGYLQRLSLKIEDTGVYYCTREHIVRDDAFDVWGQGTTVTVSS VL: DIVMTQSPDSLAVSLGERATINCKSSQSVLYSSNNKNYIAWYQQRPGQPPKLLIYWTSTRASGVPDRFSGSGSGTDFALTISSLQAEDVAVYYCQQYYTIPRTFGQGTKVEIK
binding result: no binding
--
binder: COV_1177 (antibody, V domains shown, human IgG1) VH: QVQLVESGGGVVQPGRSLRLSCAASGFTFSSYGMHWVRQAPGKGLEWVAVIWYDGSNKYYADSVKGRFTISRDNSKNTLYLQMNSLRAEDTAVYYCARDPLGAVAGYFDYWGQGTLVTVSS VL: SYVLTQPPSVSVAPGQTARITCGGNNIGSKSVHWYQQKPGQAPVLVVYDDSDRPSGIPERFSGSNSGNTATLTISRVEAGDEADYYCQVWDSSSDHHWVFGGGTKLTVLG
binding result: no binding
--
binder: COV_2048 (antibody, V domains shown, human IgG1) VH: QVQLQESGPGLVKPSETLSLTCTVSGGSISNTSYYWGWIRQPPGKGLEWIGSIYRSGSTYYNPSLKSRVTISIDTSKNQFTLKLSSVTAADTAVYYCARDYYGDYSAKPMEYWGQGTLVTVSS VL: QSALTQPRSVSGSPGQSVTISCTGTSSDVGGYNYVSWYQQHPGKAPKLLIYDVSKRPSGVPDRFSGSKSGNTASLTISGLQAEDEADYYCCSYAGSYVVFGGGAKLTVLG
binding result: no binding

Below are some binders; for each one, tell me its binding result.
1. COV_2196 (antibody, V domains shown, human IgG1) VH: QVQLVQSGAEVKKPGASVKVSCKVSGYTLIELSMHWVRQAPGKGLEWMGGFDPEDAKTIYAQKFQGRVTMTEDTSTDTAYMELSSLTFEDTAVYYCATTPAFMAAAGDFDYWGQGTLVTVSS VL: QPVLTQPSSVSVSPGQTATITCSGDVLAKKYARWFQQKPGQAPMLVIYKDTERPSGIPERFSGSSSGTTVTLTINGAQVEDEADYYCYSAAAWVFGGGTKLTVL
2. COV_2151 (antibody, V domains shown, human IgG1) VH: QVQLQESGPRLVKPSETLSLTCTVSGGSISGSNYFWGWIRQPPGKGLEWIGTIYYGGSTYYNPSLKSRVTISVDTSENQFSLKLSSVTAADTAVYYCANLAWLRGYFDYWGQGTLVTVSS VL: NFMLTQPHSVSESPGKTVTISCTRSSGSIASNYVQWYQQRPGSAPTTVIYEDNQRPSGVPDRFSGSIDSSSNSVSLTISGLKTEDEADYYCQSYDSSNWVFGGGTKLTVL
3. COV_2193 (antibody, V domains shown, human IgG1) VH: QVQLVQSGAEVKKPGASVKVSCKVSGYTLTDLSMHWVRQTPGKGLEWMGGFDAEDGETIYAQNFQGRVTMTEDTSIDVAYMELSSLRSEDTAVYYCATGSVGPDYWGQGTLVTVSS VL: SSELTQDPAVSVALGQTVRITCQGDSLRSYYASWFQQKPGQAPVLVIYLKNDRPSGIPDRFSGSSSGNTASLTITGAQAEDEADYYCNSRDSSGNHQVFGGGTKLTVL
4. COV_1201 (antibody, V domains shown, human IgG1) VH: QVQLVQSGAEVKKPGASMKVSCKASGYTFTGYYIHWVRQAPGQGLEWMGRINPNSGGTNYAQKFQGRVTMTRDTSISTAYMELSRLRSDDTAVYYCAREYYYVPYGMDVWGQGTTVTVSS VL: QSALTQPASVSGSPGQSITISCTGTSSDVGGYNFVSWYQHHPGKAPKLMIYEVSNRPSGVSNRFSGSKSGNTASLTISGLQAEDEADYYCSSYTSSSTYVFGTGTKVTVL
5. COV_2014 (antibody, V domains shown, human IgG1) VH: QVQLVQSGAEVKKPGASVKVSCKVSGYTLTELSMHWVRQAPGKGLEWMGGFDPEDGETIYAQKFQGRVTMTEDTSTDTAYMELSSLRSEDTAVYYCATGKINYYDSSGYYGTFDYWGQGTLVTVSS VL: AIQLTQSPSSLSASVGDRVTITCRASQGISSYLAWYQQKPGKAPKLLIYAASTLQSGVPSRFSGSGSGTDFTLTISSLQPEDFATYYCQQLNSYHLTFGQGTRLEIK

no binding
no binding
no binding
no binding
no binding

Origin of values: patent US20240101645A1
